- Target Of Assay: UniProtKB Q9NZQ7
- Assay Name: T cell activation luciferase reporter cell culture system (T Cell Activation Assay)
- Format: cell-based
- Measurement Parameters: luciferase reporter assay; PD-L1 aAPC/CHO-K1 cells with PD-1 effector Jurkat T cells
Endpoint Label: EC50 (nM)

                                 cpd_smiles  value_reported
0  COc1nc(-c2cccc(-c3ccnc(-c4cc(OC)c5nc(CN[C@H]6C[C@](C)(O)C6)nn5c4)c3Cl)c2Cl)ccc1CNC1CCN(C(C)=O)CC1             350
1  COCC(=O)N1CCC(NCc2ccc(-c3cccc(-c4ccnc(-c5ccc(CN6CC7(CNC(=O)C7)C6)c(OC)c5)c4Cl)c3Cl)nc2OC)CC1            17.9
2  COc1cc(-c2nccc(-c3cccc(-c4ccc(CNC[C@H](C)O)c(OC)n4)c3Cl)c2C)ccc1CNC[C@H](C)O             114

====

- Target Of Assay: human PD-L1 (Homo sapiens (Human), UniProt Q9NZQ7)
- Sequence (Q9NZQ7 19-290): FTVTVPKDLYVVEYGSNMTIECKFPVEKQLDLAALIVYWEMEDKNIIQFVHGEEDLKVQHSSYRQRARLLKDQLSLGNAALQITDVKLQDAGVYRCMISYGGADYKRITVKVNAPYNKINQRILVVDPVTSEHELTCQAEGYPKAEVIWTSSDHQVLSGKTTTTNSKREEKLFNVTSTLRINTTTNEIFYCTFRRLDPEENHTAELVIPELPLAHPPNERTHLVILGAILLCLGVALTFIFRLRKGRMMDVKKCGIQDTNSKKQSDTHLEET
- Assay Name: T cell activation luciferase reporter cell culture system (T Cell Activation Assay)
- Assay type: cell-based
- Measurement Parameters: luciferase reporter assay; PD-L1 aAPC/CHO-K1 cells with PD-1 effector Jurkat T cells
Endpoint Label: EC50 (nM)

In [3]: df
Out[3]:
                                 cpd_smiles  value_reported
0  COc1cc(-c2nccc(-c3ccnc(-c4cc5c(c(OC)c4)CN(C[C@@H]4CCC(=O)N4)CC5)c3Cl)c2Cl)cc2c1CN(C[C@@H]1CCC(=O)N1)CC2             439
1  COc1cc(-c2nccc(-c3cccc(-c4ccc(CNC5CCN(C(=O)C6CCCCC6)CC5)c(OC)n4)c3Cl)c2Cl)ccc1CNC1CCN(C(=O)C2CCCCC2)CC1             291
2  COc1cc(-c2nccc(-c3cccc(-c4ccc(CNC5CCOCC5)c(OC)n4)c3C)c2C)ccc1CNC1CCOCC1             841

====

- Target Of Assay: human PD-L1 (Homo sapiens (Human), UniProt Q9NZQ7)
- Assay Name: T cell activation luciferase reporter cell culture system (T Cell Activation Assay)
- Type: cell-based
- Measurement Parameters: luciferase reporter assay; PD-L1 aAPC/CHO-K1 cells with PD-1 effector Jurkat T cells
pEC50: −log10 of the molar value.
Kindly return Yes if reported pEC50 is no lower than 7; return No if it is lower.

Compound	Category
COc1cc(-c2nccc(-c3cccc(-c4ccc(CNC5CC6(C5)CN(C(C)=O)C6)c(OC)n4)c3C(F)(F)F)c2Cl)ccc1CNC1CC2(C1)CN(C(C)=O)C2 (stereo not shown) [Example 651]	No
COc1cc(-c2nccc(-c3cccc(-c4ccc(CNC[C@@H]5CCC(=O)N5)c(OC)n4)c3Cl)c2Cl)cc(F)c1CNC[C@@H](C)O [Cmpd 81]	Yes
COc1cc(-c2nccc(-c3cccc(-c4cc(Cl)c(CNC[C@@H]5CCC(=O)N5)c(OC)n4)c3Cl)c2Cl)cc2c1CN(C[C@@H]1CCC(=O)N1)CC2 [Cmpd 37]	Yes
COc1nc(-c2cccc(-c3ccnc(-c4ccc(CN5CC6(CNC(=O)C6)C5)c(OC(F)F)c4)c3Cl)c2Cl)ccc1CNC1CCN(C(C)=O)CC1 [Example 684]	Yes
COc1nc(-c2cccc(-c3ccnc(-c4cc5c(=O)n(C)c(CNC(C)C)nn5c4)c3Cl)c2Cl)ccc1CNC[C@@H]1CCC(=O)N1 [Compound 111]	No
COc1cc(-c2nccc(-c3cccc(-c4ccc(CNCC(=O)O)c(OC)n4)c3Cl)c2Cl)cc2c1CN(C[C@H](C)O)CC2 [Compound 229]	No
COc1cc(-c2nccc(-c3cccc(-c4ccc(CNC5CCOCC5)c(OC)n4)c3F)c2F)ccc1CNC1CCOCC1 [Example 452]	No
CNCc1ccc(-c2nccc(-c3cccc(-c4ccc(CNC)c(OC)n4)c3C(F)(F)F)c2Cl)cc1OC [Example 613]	No
COc1cc(-c2nccc(-c3cccc(NC(=O)c4cn(C)c(=O)n(C)c4=O)c3Cl)c2Cl)ccc1CN1CC2(CNC(=O)C2)C1 [Example 658]	No
COc1cc(-c2nccc(-c3cccc(NC(=O)c4ccc(CNC[C@H](C)O)cn4)c3Cl)c2Cl)ccc1CNC[C@H](C)O [Example 678]	Yes
COc1cc(-c2nccc(-c3cccc(-c4ccc(CNC[C@@H]5CCC(=O)N5)c(OC)n4)c3Cl)c2Cl)ccc1CNCC(=O)O [Cmpd 107]	No
COc1nc(-c2cccc(-c3ccnc(-c4cc(F)c5c(c4)CN(CC(C)(C)O)CC5)c3Cl)c2Cl)ccc1CNC[C@@H]1CCC(=O)N1 [Cmpd 47]	No
CNCc1ccc(-c2cccc(-c3ccnc(-c4cc(CN5CC(CC(=O)O)C5)cc(OC)c4)c3Cl)c2Cl)nc1OC [Compound 172]	No
COc1cc(-c2nccc(-c3cccc(-c4ccc(CN5CC6(CNC(=O)C6)C5)c(OC)n4)c3Cl)c2Cl)ccc1CN1CC(C)(O)C1 [Example 498]	Yes
COc1cc(-c2nccc(-c3cccc(-c4ccc(CNC[C@@H]5CCC(=O)N5)c(OC)n4)c3Cl)c2Cl)cc2c1CCN(CC(C)(C)O)C2 [Cmpd 45]	No
